Value Kind: melting point

Ask | What value of measured melting point is listed for `CC(=O)Nc1c(C#N)cnn1-c1ccc(Cl)c(Cl)c1Cl` ?
Reply | 222 to 224 °C

Ask | Look up melting point for this molecule: `COC(=O)c1ccc(CBr)c(CBr)c1`
Reply | 74 to 75 °C

Ask | Consider the molecule shown here: `COc1nc(C)nc(NC(=O)NS(=O)(=O)c2ccccc2OCC2(C)OCCO2)n1` What is its recorded melting point?
Reply | 135 to 136 °C

* * *

The following compounds are shown together with reported melting point values.

Cc1nn(C)c(-c2ccccc2)c1NC(N)=S    258 to 260 °C

Ask | Any idea what melting point was measured for `CN(C)CCNC(=O)c1cc(Oc2ccc3c(C(=O)Nc4cccc(C(F)(F)F)c4)cccc3c2)ccn1` ?
Reply | 80 to 82 °C

Ask | // melting point lookup, key: NC1CCc2ccccc2N(CC(=O)OCc2ccccc2)C1=O (stereo not given)
Reply | 105 to 107 °C

Ask | Can you share its melting point? I mean this compound: CC1=C(N)C(C)C2CC(C)(CN3CCN(c4ccc(-n5ccnc5)cc4)CC3)OC2=C1C (stereo not given)
Reply | 165 to 167 °C

Ask | Which melting point value is on record for `O=C1Nc2cccc(-c3cccc(NC(=O)c4ccc([N+](=O)[O-])cc4)c3)c2/C1=C/c1ccc[nH]1` ?
Reply | 157 to 159 °C

Ask | State the recorded melting point for this entry: `CCN1CCN(c2ccc(C(=O)NCCCCCCCCCCCCO[N+](=O)[O-])cn2)CC1`
Reply | 71 to 72 °C
